Published IC50 for Fatty-acid amide hydrolase 1 (Homo sapiens, UniProt O00519), assembled from different documents, is shown next.

[Q] Supply reported IC50 belonging to this compound: `Cc1cc(C(=O)C(=O)Nc2ccccc2)c(C)n1Cc1ccc(Cl)cc1`
[A] > 5 µM

[Q] Supply reported IC50 belonging to this compound: `NC(=O)c1ccn(C(=O)N2CCN(Cc3cccc(C(F)(F)F)c3N3CCOCC3)CC2)n1`
[A] 0.1 to 1 µM

[Q] Supply reported IC50 belonging to this compound: `Cc1cn(C(=O)N2CCN(Cc3cccc(Oc4ccc(Cl)cc4)c3)CC2)nc1C(=O)O`
[A] 0.1 to 1 µM

[Q] Supply reported IC50 belonging to this compound: `O=C(O)c1ccn(C(=O)N2CCC3(CCN(Cc4ccc(Cl)cc4N4CCCC4)C3)CC2)n1`
[A] 1 to 10 µM

[Q] Supply reported IC50 belonging to this compound: `O=C(O)c1nn(C(=O)N2CCC3(CCN(Cc4cc(Cl)ccc4C(F)(F)F)C3)CC2)cc1C(F)(F)F`
[A] 0.1 to 1 µM

[Q] Supply reported IC50 belonging to this compound: `O=C(O)c1ccn(C(=O)N2C[C@H]3C[C@H](OCc4cc(F)cc(Cl)c4)C[C@H]3C2)n1`
[A] 0.1 to 1 µM

[Q] Supply reported IC50 belonging to this compound: `Cc1cc(-c2ccccc2)ccc1CN1CCN(C(=O)n2ccc(C(=O)O)n2)CC1`
[A] 1 to 10 µM

[Q] Supply reported IC50 belonging to this compound: `O=C(OC(C(F)(F)F)C(F)(F)F)N1CCc2ccccc2[C@H]1c1ccccc1`
[A] > 1 µM

[Q] Supply reported IC50 belonging to this compound: `COc1cc(NC(=O)C(=O)c2c3c(n(Cc4ccc(Cl)cc4)c2C)CCCCCC3)ccn1`
[A] 0.08 µM

[Q] Supply reported IC50 belonging to this compound: `O=C(O)c1ccc(-c2cnc(C(=O)CCc3ccc(-c4ccccc4)cc3)o2)cn1`
[A] 0.58 µM

[Q] Supply reported IC50 belonging to this compound: `O=C(CCc1ccc(-c2ccccc2)cc1)c1ncc(-c2ccncc2)o1`
[A] 0.016 µM

[Q] Supply reported IC50 belonging to this compound: O=C(Nc1cccnc1)N1CCCC(Cc2cnc3ccccc3c2)C1 (stereo not shown)
[A] 1 µM

[Q] Supply reported IC50 belonging to this compound: `O=C(OC(C(F)(F)F)C(F)(F)F)N1CC2(CC(Oc3cccc(C(F)(F)F)c3)C2)C1`
[A] > 1 µM

[Q] Supply reported IC50 belonging to this compound: `O=C(OC(C(F)(F)F)C(F)(F)F)N1Cc2ccc(Cl)nc2C1`
[A] > 1 µM

[Q] Supply reported IC50 belonging to this compound: `Cc1nc(-c2ccccc2)c(-c2ccccc2)n1CCCCCCNC(=O)OCc1ccccc1`
[A] 1 to 10 µM

[Q] Supply reported IC50 belonging to this compound: `O=C(O)c1ccn(C(=O)N2CCC3(CCN(Cc4cc(Cl)ccc4C(F)(F)F)C3)CC2)n1`
[A] 1 to 10 µM

[Q] Supply reported IC50 belonging to this compound: `O=C(OC(C(F)(F)F)C(F)(F)F)N1CC2(CC(Oc3cncc(F)c3)C2)C1`
[A] > 1 µM

[Q] Supply reported IC50 belonging to this compound: `O=C(OC(C(F)(F)F)C(F)(F)F)N1CCCc2ccccc2C1`
[A] > 1 µM

[Q] Supply reported IC50 belonging to this compound: `COc1cc(NC(=O)C(=O)c2c3c(n(Cc4ccc(Cl)cc4)c2C)CCCCC3)ccn1`
[A] 0.009 µM

[Q] Supply reported IC50 belonging to this compound: `O=C(O)c1ccn(C(=O)N2CCN(Cc3cccc(Oc4ccc(F)cc4)c3)CC2)n1`
[A] 0.1 to 1 µM

[Q] Supply reported IC50 belonging to this compound: `COC(=O)c1cc(-c2cnc(C(=O)CCc3ccc(-c4ccccc4)cc3)o2)ccn1`
[A] 0.029 µM

[Q] Supply reported IC50 belonging to this compound: `Cc1nc(-c2ccccc2)c(-c2ccccc2)n1CCCCCCNC(=O)O/N=C/c1ccccc1`
[A] 0.01 to 0.1 µM

[Q] Supply reported IC50 belonging to this compound: `O=C(O)c1nn(C(=O)N2CCC3(CCN(Cc4cc(Cl)ccc4C(F)(F)F)C3)CC2)cc1Cl`
[A] 0.1 to 1 µM

[Q] Supply reported IC50 belonging to this compound: O=C(O)c1ccn(C(=O)N2CC3CN(Cc4cccc(Oc5ccc(Cl)cc5)c4)CC3C2)n1 (stereo not shown)
[A] 0.1 to 1 µM

[Q] Supply reported IC50 belonging to this compound: `O=C(O)c1ccn(C(=O)N2CCN(Cc3ccc(C(F)(F)F)cc3N3CC[C@H](F)C3)CC2)n1`
[A] 1 to 10 µM
